Tested on: UACC-62
EXPERIMENTAL_DETAILS: NCI tumour cell line growth inhibition, 48 h
Active and inactive are the calls of the source. Rule as the data show it: active = GI50 up to about 1.1 µM and inactive = higher.
Task for the reader: assign each of the following compounds its reported GI50.

As a guide, the following entries are already answered.
# COMPOUND, GI50
data = [
    ("CCOc1ccc(/N=C\\c2cc(OC)c(OC)c(OC)c2)cc1", "> 100 µM (inactive)"),
    ("COc1ccc(/C=C/C(=O)C(C)(C)CN2CCCCC2)cc1", "24.7 µM (inactive)"),
    ("C1CCOC2(CCC3(CC2)OCCCCO3)OC1", "> 100 µM (inactive)"),
    ("O=P1(NCCCl)OCCCN1CCCl (stereo unspecified) [IFOSFAMIDE]", "363 µM (inactive)"),
    ("CCOC(=O)c1c[nH]c2cc3c(cc2c1=O)CCS3", "> 100 µM (inactive)"),
]

State the recorded GI50 for every item in the following list.
1. CCOC(=O)Nc1cc(NC(/C=N/NC(C)=O)C(=O)OCC)c(OC)cc1NC(C)=O (stereo unspecified)
2. CC1=C(/C(C)=N/NC(=O)C(N)=O)Sc2ccccc2N1

Result:
1. > 100 µM (inactive)
2. > 100 µM (inactive)

State the recorded GI50 for every item in the following list.
1. CCOC(=O)NC(=O)c1cn(CCN2CCN(C(=O)CCCCCCCCCCNc3ncnc4[nH]cnc34)CC2)c(=O)[nH]c1=O
2. CN(Cc1cc(Cl)cc(Cl)c1O)Cc1c(O)ccc2ccccc12
3. COc1ccc(C(=O)OC2C=COC(C)C2OC(=O)c2ccc(OC)cc2)cc1 (stereo unspecified)
4. C/C(Sc1ccccc1)=C1/CCCN(Cc2ccccc2)C1

Result:
["25.8 µM (inactive)", "15.5 µM (inactive)", "18.4 µM (inactive)", "19.9 µM (inactive)"]
